Test system: Nuclear hormone receptor DAF-12 (Heterodera glycines), GAL4 fusion
assay_details: H. glycines DAF-12 receptor agonists, primary screen, cell-based, luminescence, HEK293, GAL4 fusion, UAS-luciferase (AID 687014);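 further: 0% = DMSO wells and 100% = sodium butyrate wells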
experimental_setup: HEK293 GAL4-hgDAF12 UAS-luciferase reporter, agonist luminescence; at 6.8 µM; active compounds read high; normalized to butyrate control
Hit rate of the full screen: of about 370,000 compounds, about 6,800 (1.8%) were called active. For the sample, actives were picked, then their nearest neighbours and some compounds at random.
measured_parameter: activation (%)
The figure you give is taken to be in %; do not add the unit.

q: Query (compound): Cc1cc(F)ccc1N1CCC(N2CCN(C)C(CCO)C2)CC1 (stereo not given) ; field requested: activation
a: 1.51

q: Query (compound): CC(=O)Oc1ccc2c(=O)oc(-c3ccc([N+](=O)[O-])cc3)nc2c1 ; field requested: activation
a: 0.03

q: Query (compound): COc1cccc(-c2nc(CS(=O)(=O)CC(=O)NCCc3ccc(OC)c(OC)c3)c(C)o2)c1 ; field requested: activation
a: 0.2

q: Query (compound): COc1cccc(-c2nnc(SCCOc3ccc4c(C)cc(=O)oc4c3)o2)c1 ; field requested: activation
a: -0.66

q: Query (compound): C[C@@H]1ON(C)[C@H]2C[C@H]3c4[nH]c5cccc(-c6ccc7c(c6)OCO7)c5c4CCN3C[C@@H]12 ; field requested: activation
a: -2.08

q: Query (compound): Clc1ccc(-n2c(SC/C=C/c3ccccc3)nnc2-c2ccco2)cc1 ; field requested: activation
a: -0.13

q: Query (compound): CC1CCCN(c2cccc3c2S(=O)(=O)N(Cc2ccc(F)cc2)[C@@H](C)[C@H](c2ccccc2)O3)C1 (stereo not given in full) ; field requested: activation
a: 2.2

q: Query (compound): CCc1ccc(CN2C(=O)c3ccccc3C2C(=O)NCC2CCCO2)cc1 (stereo not given) ; field requested: activation
a: 0.15

q: Query (compound): COc1cccc(-c2nc3cc(C)ccc3o2)c1 ; field requested: activation
a: 17.6

q: Query (compound): O=C1C(C=NCC2CCCO2)=C(O)c2ccccc21 (stereo not given) ; field requested: activation
a: 13.2

Origin of measurements: PubChem BioAssay AID687014
